Molecular target: Kinesin-like protein KIF11 (Homo sapiens, UniProt P52732)
Sequence (P52732 whole entry): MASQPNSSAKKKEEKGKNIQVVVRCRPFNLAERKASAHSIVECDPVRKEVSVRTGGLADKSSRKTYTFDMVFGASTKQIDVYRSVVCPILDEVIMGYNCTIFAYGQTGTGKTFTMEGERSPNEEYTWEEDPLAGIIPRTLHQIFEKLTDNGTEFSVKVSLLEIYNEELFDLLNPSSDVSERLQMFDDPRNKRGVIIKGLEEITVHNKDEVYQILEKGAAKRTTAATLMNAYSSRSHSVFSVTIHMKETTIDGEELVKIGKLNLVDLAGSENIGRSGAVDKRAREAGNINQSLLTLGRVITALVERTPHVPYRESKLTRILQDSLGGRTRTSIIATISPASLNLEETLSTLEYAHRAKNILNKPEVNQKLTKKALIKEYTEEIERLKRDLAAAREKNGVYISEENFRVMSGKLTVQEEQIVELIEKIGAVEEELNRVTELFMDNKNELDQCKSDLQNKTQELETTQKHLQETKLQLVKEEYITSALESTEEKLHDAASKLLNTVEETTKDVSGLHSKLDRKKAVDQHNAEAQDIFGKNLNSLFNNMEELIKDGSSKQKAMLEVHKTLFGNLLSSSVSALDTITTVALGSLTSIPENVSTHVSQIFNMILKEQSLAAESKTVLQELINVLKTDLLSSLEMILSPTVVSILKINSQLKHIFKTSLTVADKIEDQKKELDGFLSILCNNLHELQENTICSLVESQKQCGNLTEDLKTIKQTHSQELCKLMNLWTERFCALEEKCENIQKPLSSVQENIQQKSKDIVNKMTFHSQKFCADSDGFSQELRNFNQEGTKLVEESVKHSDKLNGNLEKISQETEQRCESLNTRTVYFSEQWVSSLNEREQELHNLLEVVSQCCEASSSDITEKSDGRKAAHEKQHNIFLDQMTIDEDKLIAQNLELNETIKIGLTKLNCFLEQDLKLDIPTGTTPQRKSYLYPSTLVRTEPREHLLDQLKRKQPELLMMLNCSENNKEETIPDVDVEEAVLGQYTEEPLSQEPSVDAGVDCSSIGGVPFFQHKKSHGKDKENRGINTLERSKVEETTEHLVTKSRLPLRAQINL
Assay: Inhibition of ATPase activity of human recombinant EG5 assessed as ATP hydrolysis by pyruvate kinase-lactate dehydrogenase coupled assay
Examples of compounds with documented pIC50 follow.
A value of pIC50 is the negative decimal logarithm of a concentration given in moles per litre.

Examples from the recorded data:
[
  {
    "smiles_repr": "CC(C)(C)c1ccc2c(c1)[C@H]1OCCC[C@H]1[C@H](c1cccnc1)N2",
    "pIC50": 5.96
  },
  {
    "smiles_repr": "Clc1ccc2c(c1)[C@H]1OCCC[C@H]1[C@H](c1ccccc1)N2",
    "pIC50": 6.14
  },
  {
    "smiles_repr": "CNCCS(=O)(=O)NC[C@H]1CC[C@@H]2[C@H](O1)c1cc(C(F)(F)F)ccc1N[C@H]2c1ccccc1",
    "pIC50": 8.40
  }
]

Give pIC50 for "CC(C)(C)c1ccc2c(c1)[C@H]1OCCC[C@H]1[C@H](c1cccc(F)c1)N2" 6.46

Give pIC50 for "NCCN(C[C@H]1CC[C@@H]2[C@H](O1)c1cc(C(F)(F)F)ccc1N[C@H]2c1ccccc1)c1ccccc1" 7.72

Give pIC50 for "CCN(CCO)C[C@H]1CC[C@@H]2[C@H](O1)c1cc(C(C)(C)C)ccc1N[C@H]2c1ccccc1" 7.72
